Tested System: NEK7 (Homo sapiens (Human), UniProt Q8TDX7+Q96SW2)
Sequence (Q8TDX7 whole entry): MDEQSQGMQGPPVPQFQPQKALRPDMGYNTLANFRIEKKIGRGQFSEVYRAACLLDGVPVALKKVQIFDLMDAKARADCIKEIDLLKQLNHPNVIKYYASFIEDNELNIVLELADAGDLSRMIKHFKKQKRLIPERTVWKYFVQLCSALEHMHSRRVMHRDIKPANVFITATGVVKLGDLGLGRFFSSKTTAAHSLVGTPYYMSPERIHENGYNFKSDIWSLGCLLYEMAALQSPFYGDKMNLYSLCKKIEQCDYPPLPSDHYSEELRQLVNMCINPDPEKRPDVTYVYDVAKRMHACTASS
Sequence (Q96SW2 whole entry): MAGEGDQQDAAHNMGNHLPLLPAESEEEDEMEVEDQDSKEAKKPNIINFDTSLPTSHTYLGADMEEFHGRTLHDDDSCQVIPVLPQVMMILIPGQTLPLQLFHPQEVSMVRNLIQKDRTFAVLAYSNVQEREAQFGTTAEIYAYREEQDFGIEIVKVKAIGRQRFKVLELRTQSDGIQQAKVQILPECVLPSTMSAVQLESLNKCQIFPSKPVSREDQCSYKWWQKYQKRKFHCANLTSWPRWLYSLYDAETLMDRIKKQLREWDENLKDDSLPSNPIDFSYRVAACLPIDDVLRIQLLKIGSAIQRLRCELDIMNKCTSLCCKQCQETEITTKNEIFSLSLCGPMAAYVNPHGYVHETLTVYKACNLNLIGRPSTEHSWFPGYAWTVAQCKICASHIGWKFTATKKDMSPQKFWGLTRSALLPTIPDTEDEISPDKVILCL
Sequence (Q16531 2-1140 partner): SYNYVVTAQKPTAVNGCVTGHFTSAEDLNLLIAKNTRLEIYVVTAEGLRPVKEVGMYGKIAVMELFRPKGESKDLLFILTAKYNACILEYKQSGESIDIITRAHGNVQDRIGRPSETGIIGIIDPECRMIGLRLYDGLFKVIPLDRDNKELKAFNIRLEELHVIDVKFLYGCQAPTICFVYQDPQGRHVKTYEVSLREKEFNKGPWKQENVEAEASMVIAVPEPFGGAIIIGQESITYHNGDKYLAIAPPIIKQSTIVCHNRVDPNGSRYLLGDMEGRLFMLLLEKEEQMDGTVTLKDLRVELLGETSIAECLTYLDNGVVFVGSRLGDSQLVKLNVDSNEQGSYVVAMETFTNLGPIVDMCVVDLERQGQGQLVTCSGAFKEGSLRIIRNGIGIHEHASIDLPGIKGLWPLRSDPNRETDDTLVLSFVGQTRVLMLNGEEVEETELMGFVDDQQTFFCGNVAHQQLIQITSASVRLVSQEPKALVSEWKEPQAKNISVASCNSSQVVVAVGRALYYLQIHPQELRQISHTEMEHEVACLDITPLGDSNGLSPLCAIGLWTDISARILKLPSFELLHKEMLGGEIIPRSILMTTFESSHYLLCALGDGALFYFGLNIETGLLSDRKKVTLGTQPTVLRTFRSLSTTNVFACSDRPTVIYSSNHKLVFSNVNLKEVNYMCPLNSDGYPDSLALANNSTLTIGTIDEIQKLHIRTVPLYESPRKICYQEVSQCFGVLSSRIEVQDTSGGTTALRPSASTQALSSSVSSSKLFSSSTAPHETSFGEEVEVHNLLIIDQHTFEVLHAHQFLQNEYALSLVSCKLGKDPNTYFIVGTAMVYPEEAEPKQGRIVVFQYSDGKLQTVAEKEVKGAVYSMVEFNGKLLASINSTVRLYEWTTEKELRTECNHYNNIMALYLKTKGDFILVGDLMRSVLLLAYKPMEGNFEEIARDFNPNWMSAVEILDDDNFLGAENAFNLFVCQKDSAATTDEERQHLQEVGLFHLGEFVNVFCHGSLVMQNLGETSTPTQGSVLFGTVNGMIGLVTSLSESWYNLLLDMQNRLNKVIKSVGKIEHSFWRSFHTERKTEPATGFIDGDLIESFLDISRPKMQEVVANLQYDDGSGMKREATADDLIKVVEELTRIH
Test Summary: NEK7 NanoBiT degradation assay in Cal51 NEK7 NanoBiT cell line
Format: cell-based
Assay Conditions: Cal51 NEK7 NanoBiT cells, 24 hours; read-out: NEK7 NanoBiT DC50
For each of the compounds below, state its DC50.
Give bare numbers, in nM.

Examples with their reported DC50 follow.
>>> print(df.to_string())
                                   compound                             tested_system  unit_descriptor  quantitative_readout
0  CC(C)(C(=O)NCc1cc(Cl)c(C2CCC(=O)NC2=O)c(Cl)c1)c1cn(C(C)(F)F)c(=O)cn1 (stereo not shown)  NEK7 (Homo sapiens (Human), UniProt Q8TDX7+Q96SW2)               nM                    15
1  CC(C)(C(=O)NCc1cc(Cl)c(C2CCC(=O)NC2=O)c(Cl)c1)c1nnc(C(F)(F)F)o1 (stereo not shown)  NEK7 (Homo sapiens (Human), UniProt Q8TDX7+Q96SW2)               nM                   345
2  O=C1CCC(c2c(Cl)cc(CNC(=O)C3(c4ccnc(F)c4)CC(F)(F)C3)cc2Cl)C(=O)N1 (stereo not shown)  NEK7 (Homo sapiens (Human), UniProt Q8TDX7+Q96SW2)               nM                    63

Provide reported DC50 for each item, in the same order as listed.
1. Cc1ocnc1C(C)(C)C(=O)NCc1cc(Cl)c(C2CCC(=O)NC2=O)c(Cl)c1 (stereo not shown)
2. CC(C)(C(=O)NCc1cc(Cl)c(C2CCC(=O)NC2=O)c(Cl)c1)c1ccc(S(C)(=O)=O)cc1 (stereo not shown)
3. CC(C)(C(=O)NCc1cc(Cl)c(C2CCC(=O)NC2=O)c(Cl)c1)c1ccc2nnccc2c1 (stereo not shown)
4. Cc1cncnc1C(C)(C)C(=O)NCc1cc(Cl)c(C2CCC(=O)NC2=O)c(Cl)c1 (stereo not shown)

## Output
1: 41; 2: 3; 3: 0.4; 4: 8
